Listed here: items and their measured pIC50.
Molecular target: cGMP-specific 3',5'-cyclic phosphodiesterase (Homo sapiens, UniProt O76074)
pIC50: −log10 of the molar value.
TEST READOUT: pIC50

* COc1cc(-c2cccnc2)cc2c1nc(C)c1c(C)nc(-c3cccnc3)n12 | 6.63
* COc1cc(-c2ccc(F)nc2)cc2c1nc(C)c1c(C)nc(-c3cccnc3)n12 | 6.55
* COc1cc(-c2ccc(F)nc2)cc2c1nc(C)c1c(C)nc(-c3ccncc3)n12 | 6.70
* COc1cc(-c2ccncc2)cc2c1nc(C)c1c(C)nc(-c3ccc(F)nc3)n12 | 6.71
* COc1cc(-c2cccnc2)cc2c1nc(C)c1c(C)nc(-c3ccc(F)nc3)n12 | 6.64
